Molecular target: human BCRP (Homo sapiens, UniProt Q9UNQ0)
Sequence (Q9UNQ0 whole entry): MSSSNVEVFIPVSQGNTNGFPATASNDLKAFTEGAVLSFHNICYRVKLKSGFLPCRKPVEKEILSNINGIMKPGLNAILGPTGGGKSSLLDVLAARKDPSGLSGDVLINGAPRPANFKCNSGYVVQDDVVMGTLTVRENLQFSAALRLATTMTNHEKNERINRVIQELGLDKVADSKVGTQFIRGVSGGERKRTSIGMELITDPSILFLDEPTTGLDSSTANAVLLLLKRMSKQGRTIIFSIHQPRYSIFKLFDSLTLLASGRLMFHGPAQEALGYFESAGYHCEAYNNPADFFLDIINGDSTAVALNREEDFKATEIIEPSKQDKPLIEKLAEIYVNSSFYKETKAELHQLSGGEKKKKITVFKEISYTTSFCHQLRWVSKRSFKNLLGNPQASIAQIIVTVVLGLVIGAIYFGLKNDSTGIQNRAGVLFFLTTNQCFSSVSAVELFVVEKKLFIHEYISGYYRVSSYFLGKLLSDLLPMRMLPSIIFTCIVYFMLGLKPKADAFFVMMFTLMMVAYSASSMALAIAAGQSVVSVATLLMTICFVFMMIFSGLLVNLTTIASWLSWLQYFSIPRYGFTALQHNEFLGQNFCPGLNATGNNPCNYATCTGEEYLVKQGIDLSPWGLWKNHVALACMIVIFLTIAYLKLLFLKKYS
Test: in vitro
Experimental readout: activity at 3 h, 1 μmol/L (%)

>>> reading("C=CC(=O)N1C[C@H](n2c(C#CC3CC3)c(C(=O)N[C@H](C)c3ccccc3)c3c(N)ncnc32)C[C@@H]1C")
24

###

Molecular target: human BCRP (Homo sapiens, UniProt Q9UNQ0)
Assay: in vitro
Experimental readout: activity at 3 h, 0.5 μmol/L (%)

>>> reading("C=CC(=O)N1C[C@H](n2c(C#CC3CC3)c(C(=O)N[C@H](C)c3ccccc3)c3c(N)ncnc32)C[C@@H]1C")
54
